Assay: Metabolic stability in hepatocyte
Details: human, hepatocytes in suspension

Compound	hepatocyte CLint at 0.5 μM, µL/min/1e6 cells
CCc1cc(Cl)c(OC)c(N2CCN(CC(O)CCNC(=O)c3cc4ccccc4[nH]3)CC2)c1 (stereo not shown) [R-VK4-116]	11.8

====

Tested on: CYP3A4 mRNA
Assay: CYP induction, mRNA, primary cultured human hepatocytes
Type: in vitro ADME
Settings: human, primary cultured human hepatocytes, Lot 399, 0.01 μM; read-out: CYP3A4 mRNA Fold Induction (fold of vehicle control)

Compound	fold induction at 48 h, 0.01 µM
CCc1cc(Cl)c(OC)c(N2CCN(CC(O)CCNC(=O)c3cc4ccccc4[nH]3)CC2)c1 (stereo not shown) [R-VK4-116]	1.2

src = paper PMC11649115
